Values compiled from patent US20240343803A1.

system name: T1, human PVRIG-his (AcroBiosystems, Cat NO. PVG-H52H4) (human, UniProt Q6DKI7 41-171, limits assumed)
T1 construct: Bought reagent; also called human PVRIG protein
T1 sequence (looked up): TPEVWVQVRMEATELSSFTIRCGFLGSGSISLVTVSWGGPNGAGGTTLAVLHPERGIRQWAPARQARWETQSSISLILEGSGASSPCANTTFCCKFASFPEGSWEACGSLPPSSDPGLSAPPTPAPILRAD
experiment summary: ELISA, coated human PVRIG-his
Provide the recorded pEC50 for the entries that follow.
One number for each entry, as −log10 of the molar value.

For each entry beneath this line, provide reported pEC50.
1. PVRIG-A75 (Fc fusion, Alpaca VHH joined to human IgG1 Fc (VHH-hinge-CH2-CH3); not shown: human IgG1 hinge-CH2-CH3) QLQLVESGGGLVQSGGSLRLSCAASGRTRSMYVMGWFRQAPGKEREFVGRIKWSGDTTYTSYADFVKGRFTLYGNQARNTVYLQMNSLKPEDTAVYSCAASKFPVSGVPEHYDYWGQGTQVTVSS
2. PVRIG-A30 (Fc fusion, Alpaca VHH joined to human IgG1 Fc (VHH-hinge-CH2-CH3); not shown: human IgG1 hinge-CH2-CH3) QVQLVESGGGLVQPGGSLRLSCAASGRTDSMNVMGWFRRAPGKEREFVARIKWNGDTTYTAYADFLKGRFTLYGAVARNRVYLQMNSLQPEDTAVYYCAAGEVSGSSYSPDYGMHYWGKGTLVTVSS
3. PVRIG-A118 (Fc fusion, Alpaca VHH joined to human IgG1 Fc (VHH-hinge-CH2-CH3); not shown: human IgG1 hinge-CH2-CH3) QVQLVESGGGLVQAGGSLRLSCAASETYFDLYVMGWYRQAPGKDRELVATITYTGSIKIVDSVKDRFTISRGDAKNTVSLQMSSLKPEDTAVYFCNADPSGLGRKVYWGQGTQVTVSS
4. PVRIG-A104 (Fc fusion, Alpaca VHH joined to human IgG1 Fc (VHH-hinge-CH2-CH3); not shown: human IgG1 hinge-CH2-CH3) EVQVVESGGGLVQAGGSLRLSCAASGRTRSMYVMGWFRQAPGKEREFVGRIKWSGDTTYTSYADFVKGRFTLYGNQARNTVYLQMNSLKPEDTAVYYCYRRSWTNTKLYWGKGIQVTVSS

10.21
9.59
10.29
10.18
